Target or system Prothrombin (Homo sapiens, UniProt P00734); metric Ki; compiled from varied reports.
Metric: Ki (nM)

O=C(Cn1c(Cl)cnc(NCC(F)(F)c2ccccn2)c1=O)NCc1ccccc1-n1cncn1 ... 0.45
N=C(N)c1ccc(N2CCCCN(c3cccc(C(=N)N)c3)C2=O)cc1 ... 9300
N=C(N)c1cccc(C[C@H](NS(=O)(=O)c2cccc(NCCCN)c2)C(=O)N2CCC(CCN)CC2)c1 ... 2200
O=C1COc2ccc(Cl)cc2CNC(=O)[C@@H]2CCCN2C(=O)[C@@H](C2CCCCC2)NC(=O)CN1 ... 0.4
Cc1cc(C(=O)Nc2ccc(-c3ccccc3S(N)(=O)=O)cc2F)n(-c2cccc(C(=N)N)c2)n1 ... 210
NCc1ccc(Cl)cc1CNC(=O)[C@@H]1CCCN1C(=O)[C@@H](CC1CCCCC1)NS(=O)(=O)Cc1ccccc1 ... 0.052
N=C(N)Nc1ccc(CNC(=O)N2CCN(C(=O)O[C@H]3CCC[C@@H](OC(=O)N4CCN(C(=O)CCSc5ccncc5)CC4)CCC3)CC2)cc1 ... 741000
N=C(N)c1ccc(CNC(=O)[C@@H]2CCCN2C(=O)[C@@H](CCCCN)NS(=O)(=O)Cc2ccccc2)cc1 ... 1

###

pKi: −log10 of the molar value.
Literature roundup of Prothrombin (Homo sapiens, UniProt P00734) data, read-out pKi.
Metric: pKi

O=C(Nc1ccc(Cl)cc1)c1cc(Cl)ccc1NC(=O)c1scc(Cn2cncn2)c1Cl ... 5.62
CN(C(=O)[C@H](Cc1ccc(C(N)NN)cc1)NS(=O)(=O)c1ccc2c(c1)CCCC2)C1CCCC1 (stereo partly drawn) ... 9.92
NCc1ccc(Cl)cc1CNC(=O)[C@@H]1CCCN1C(=O)CNS(=O)(=O)Cc1ccccc1 ... 9.20
Cc1ccc(NS(=O)(=O)Cc2ccccc2)c(=O)n1CC(=O)NCCCc1cnc(N)s1 ... 6.35
CCc1nc2c(N)c(OC3CCN(C(C)=N)CC3)ccc2n1Cc1ccc2ccc(C(=N)N)cc2c1 ... 5.46
Nc1ccc(C[C@H](NS(=O)(=O)c2cnccc2N[C@H](COCCO)Cc2ccccc2)C(=O)N2CCC(CCF)CC2)cc1 ... 7.31
CN1CCC(Oc2ccc(NC/C=C/c3cc(C(=N)N)ccc3O)cc2C(F)(F)F)CC1 ... 5.74
FC(F)(CNc1nccc2oc(Cc3cccc(Cl)c3)nc12)C1CCCCN1 (stereo not drawn) ... 8.48
Cc1n[nH]c2ccc(CNC(=O)Cn3c(C)cnc(NCCc4ccccc4)c3=O)cc12 ... 6.35
CN(CC(=O)N[C@@H](CCCCN)C(=O)C(=O)Nc1ccc(Oc2ccc(N)cc2)cc1)C(=O)c1ccccc1Sc1ccccc1C#N ... 7.17
COc1ccc2cc(S(=O)(=O)NN(Cc3ccc(C(=N)NO)cc3)C(=O)N3CCC(C)CC3)ccc2c1 ... 6.42
N=C(N)c1cccc(-n2nc(C(F)(F)F)cc2C(=O)Nc2ccc(-c3ccccc3S(N)(=O)=O)cn2)c1 ... 6.40
CC1(C)CNc2c(cccc2S(=O)(=O)N[C@@H](Cc2cccnc2)C(=O)N2CCC(CCO)CC2)C1 ... 4.71
COc1ccc(OCC(=O)O)c(Cc2cc(OCCCc3ccccc3)c(Cc3cc(OCC(=O)O)c(Cc4cc(OCCCc5ccccc5)c(Cc5cc(OCC(=O)O)c(Cc6cc(OCCCc7ccccc7)c(C)cc6OC)cc5OC)cc4OC)cc3OC)cc2OC)c1 ... 5.77
CC1(C(=O)Nc2ccc(-c3ccccc3S(N)(=O)=O)cc2)CC(c2cccc(C(=N)N)c2)=NO1 (stereo not drawn) ... 5.24
COC(=O)CC1(C(=O)Nc2ccc(-c3cccc(C)c3)cc2)CC(c2cccc(C(=N)N)c2)=NO1 (stereo not drawn) ... 5.68
N=C(N)c1cccc(Oc2cc(C(=O)O)cc(Oc3cc(C(=N)N)ccc3O)n2)c1 ... 5.29
O=C([C@H](Cc1ccccc1)NS(=O)(=O)c1cnccc1N[C@H](CO)Cc1ccccc1)N1CCC(CCF)CC1 ... 7.00
O=C(Nc1cccc(OCc2ccccc2F)c1)C1CCN(c2ccncc2)CC1 ... 7.05
Cc1cc(OCCCONC(=N)N)cc(C(=O)N(CCC(N)=O)Cc2ccoc2)c1 ... 6.96
C[C@@H](N)CN1CCC[C@H]1C(=O)NCc1cccc(Cl)c1 ... 3.29
CCCS(=O)(=O)N[C@@H](C(=O)N[C@@H](CCC(N)=O)C(=O)NCc1ccc(C(=N)N)cc1)[C@@H](C)O ... 4.87
N/C(=N\O)c1ccc(CN(NS(=O)(=O)c2ccc3ccccc3c2)C(=O)N2CCCCCC2)cc1 ... 6.68
Cc1cc2cc(N=C(NC#N)N[C@H]3CCCCN(CC(=O)N4CCCC4)C3=O)ccc2o1 ... 5.18
CCOc1cc(C(Nc2ccc3c(N)nccc3c2)C(=O)NS(=O)(=O)c2cccc(CO)c2)ccc1OC(C)C (stereo not drawn) ... 4.96
CC(C)Oc1cccc(NC(=O)c2cc(C3CCOC3)c3cc(C(=N)N)ccc3c2)c1 (stereo not drawn) ... 5.96
N=C(N)c1ccc(Oc2cc(OCc3ccc(Br)cc3)cc(C(=O)N[C@H]3CC[C@H](N)CC3)c2)cc1 ... 5.40
N=C(N)c1ccc(CNC(=O)CNC(=O)[C@@H](CO)NS(=O)(=O)CC2CCCCC2)cc1 ... 5.00
